Numbers sourced from PubChem BioAssay (NCATS).

procedure_details: S16 Schwann cell PMP22 intronic element beta-lactamase assay (AID 624044); note: nearly all actives have a fitted effect of over 15% in size
condition_summary: S16 rat Schwann cells, PMP22 element beta-lactamase FRET, 24 h
Experimental: Description: Charcot-Marie-Tooth-Association [CMTA] National Center for Advancing Translational Sciences [NCATS] […] S16 Schwann cell PMP22 intronic element beta-lactamase assay The beta-Lac-expressing S16 cells were seeded in black clear-bottom 1536 well plates at between 500-750 cells/6uL in DMEM medium containing 10% FBS, w/o phenol red. […] The concentration-effect curves were then classified based on curve quality (r2), response magnitude and degree of measured activity.
Inconclusive results are not listed. Calls of active or inactive are those of the source. Calls come from the whole dose curve.
Classes used: TRUE = active, FALSE = inactive

compound	group_label
CC(=O)NC1[C@H](O)C[C@@](O)(C(=O)O)O[C@H]1[C@H](O)[C@H](O)CO (stereo not given in full)	FALSE
NC(C(=O)O)C(O)c1ccc(O)c(O)c1 (stereo not given)	FALSE
COC(c1ccccc1)(c1ccccc1)C(Oc1nc(C)cc(C)n1)C(=O)O (stereo not given)	FALSE
O=C1NC(=O)C2C3C=CC(C3)C12 (stereo not given)	FALSE
CO/N=C(/C(=O)N[C@@H]1C(=O)N2C(C(=O)O)=C(CSc3nc(C)c(CC(=O)O)s3)CS[C@H]12)c1csc(N)n1	FALSE
CC1(C)O[C@@H]2C[C@H]3[C@@H]4CCC5=CC(=O)C=C[C@]5(C)[C@H]4C(O)C[C@]3(C)[C@]2(C(=O)CO)O1 (stereo not given in full)	FALSE
OCC1O[C@@H](O[C@@H]2C(CO)OC(O)C(O)C2O)C(O)C(O)C1O (stereo not given in full)	FALSE
CC(C)(C)NC[C@H](O)CSc1nc(-c2ccc(C(N)=O)s2)cs1	FALSE
CCC(C(=O)O)C1OC(C(C)C(O)C(C)C(=O)C(CC)C2OC3(C=CC(O)C4(CCC(C)(C5CCC(O)(CC)C(C)O5)O4)O3)C(C)CC2C)C(C)CC1C (stereo not given)	TRUE
C=C1CC2C3C=C(C)C4=CC(=O)CCC4(C)C3CCC2(C)[C@@]1(OC(C)=O)C(C)=O (stereo not given in full)	FALSE
CCCCCCCCCCCCCCCC(=O)OC[C@H](O)[C@H]1OC[C@@H](O)[C@@H]1O	FALSE
COc1cc(/C=C2\CCC/C(=C\c3ccc(O)c(OC)c3)C2=O)ccc1O	TRUE
C[n+]1c2cc(N)ccc2cc2ccc(N)cc21	FALSE
Cc1c(C)c2c(c(C)c1O)CCC(C)(CCCC(C)CCCC(C)CCCC(C)C)O2 (stereo not given)	FALSE
NC(=O)c1ncn(C2OC(CO)C(O)C2O)c1N (stereo not given)	FALSE
C[C@@H]1CCN(C(=O)[C@H](CCCNC(=N)N)NS(=O)(=O)c2cccc3c2NC[C@H](C)C3)[C@@H](C(=O)O)C1	FALSE
COC(=O)C1C2CC3c4[nH]c5cc(OC)ccc5c4CCN3CC2CC(OC)C1OC (stereo not given)	FALSE
CC(=O)O[C@]1(C(C)=O)CCC2C3CCC4=CC(=O)CCC4(C)C3(F)C(O)CC21C (stereo not given in full)	FALSE
Cc1cc(O)c2c(c1)OC1(C)CCC3C(C)(C)CCCC34COC2C14 (stereo not given)	FALSE
NC(=O)NC(CCC(=O)O)C(=O)O (stereo not given)	FALSE

* * *

Test system: P94_40
procedure_details: qHTS profiling for inhibitors of Plasmodium falciparum proliferation (AID 504749); note: nearly all actives have a fitted effect of over 60% in size
condition_summary: P. falciparum in erythrocytes, SYBR Green DNA, 72 h; series mostly up to 28.7 µM
Description: NIH National Institute of Allergy and Infectious Diseases [NIAID] NIH Chemical Genomics Center [NCGC] […] Because mature erythrocytes lack DNA, only Plasmodium-derived DNA is detected. NCGC Assay Protocol Summary: The SYBR Green viability assay was adapted from a method described previously (Plouffe et al., 2008). […] The following morning, fluorescence intensity at 485(14) nm excitation and 535(25) nm emission wavelengths was measured on an EnVision (Perkin Elmer) plate reader. […]
Inconclusive results are not listed. Activity calls are given as the source filed them. Calls follow the shape of the dose curve; as a rule, active = well fitted inhibition curve with a large enough effect; inconclusive = small, poorly fitted or top-dose-only effect; inactive = flat fitted curve, though single readings scatter.
Classes used: active, inactive

compound	group_label
COC1CC2CCC(C)[C@](O)(O2)C(=O)C(=O)N2CCCCC2C(=O)OC(C(C)CC2CCC(O)C(OC)C2)CC(=O)C(C)/C=C(/C)C(O)C(OC)C(=O)C(C)CC(C)C=CC=C/C=C\1C (stereo partly specified)	active
CO/N=C(/C(=O)N[C@@H]1C(=O)N2C(C(=O)O)=C(CSc3cnns3)CS[C@H]12)c1csc(N)n1	inactive
NC(CSSCC(N)C(=O)O)C(=O)O (stereo unspecified)	inactive
CC(=O)NC[C@@H]1CN(c2ccc(N3CCOCC3)c(F)c2)C(=O)O1	inactive
CO[C@H]1OC2O[C@@]3(C)CC[C@H]4[C@H](C)CC[C@@H]([C@H]1C)[C@@]24OO3 (stereo partly specified)	active
C/C1=C2/[N-]C(C(CC(N)=O)[C@@]2(C)CCC(=O)NCC(C)OP(=O)([O-])O[C@H]2[C@@H](O)[C@@H](n3cnc4cc(C)c(C)cc43)O[C@@H]2CO)[C@]2(C)N=C(/C(C)=C3N=C(/C=C4N=C1C(CCC(N)=O)C\4(C)C)[C@@H](CCC(N)=O)[C@]\3(C)CC(N)=O)[C@@H](CCC(N)=O)[C@]2(C)CC(N)=O.CC(=O)O.[Co] (stereo partly specified)	inactive
CC(=O)NC1[C@H]([C@H](O)[C@H](O)CO)OC(C(=O)O)=C[C@H]1N=C(N)N (stereo partly specified)	inactive
C[C@H](O)[C@@H]1C(=O)N2C(C(=O)O)=C(SCCN=CN)C[C@@H]12	inactive
CO[C@H]1C[C@@H]2CC[C@@H](C)[C@@](O)(O2)C(=O)C(=O)N2CCCC[C@H]2C(=O)O[C@H]([C@H](C)C[C@@H]2CC[C@@H](O)[C@H](OC)C2)CC(=O)[C@H](C)/C=C(\C)[C@@H](O)[C@@H](OC)C(=O)[C@H](C)C[C@H](C)/C=C/C=C/C=C/1C	active
CC(CCC(=O)O)C1CCC2C3C(=O)C[C@@H]4CC(=O)CC[C@@]4(C)C3CC(=O)[C@]12C (stereo partly specified)	inactive
NCCCCC(N)C(=O)O (stereo unspecified)	inactive
Nc1nc(F)nc2c1ncn2[C@@H]1O[C@H](CO)[C@@H](O)[C@H]1O	inactive
Cc1c(C)c2c(c(C)c1O)CCC(C)(CCCC(C)CCCC(C)CCCC(C)C)O2 (stereo unspecified)	inactive
CN(C)CC[C@@](O)(c1ccccc1)c1ccccc1Cl	active
Nc1nc(Cl)nc2c1ncn2[C@@H]1O[C@H](CO)[C@H](O)C1F (stereo partly specified)	inactive
COc1ccc(C(=O)/C(Br)=C/C(=O)O)cc1	inactive

* * *

assay_target: Estrogen receptor (Homo sapiens)
procedure_details: qHTS assay for small molecule antagonists of estrogen receptor alpha signaling (AID 588513)
condition_summary: ER-alpha-UAS-bla HEK293, beta-lactamase ratio, antagonist mode; series mostly up to 76.9 µM
Active and inactive are the calls of the source. Calls come from the whole dose curve; as a rule, active = well fitted curve in the direction sought with a large enough effect in the signal ratio, with a control signal flat (not every such curve was filed as active); inconclusive = small, poorly fitted or top-dose-only effect, or effect the other way, or a change in a side signal; inactive = no such curve, though single readings can be large or run the other way; the % refers to the signal ratio.
Classes used: YES = active, NO = inactive

> print(dat)
                                        smi  group.label
1                   C=CC(=O)OCCOCCOC(=O)C=C          YES
2  O=C1OC2(c3cc(Br)c(O)c(Br)c3Oc3c2cc(Br)c(O)c3Br)c2c(Cl)c(Cl)c(Cl)c(Cl)c21           NO
3             ClC1=C(Cl)C(Cl)(Cl)C(Cl)=C1Cl           NO
4  CN(C)c1ccc(C2(c3ccc(N(C)C)cc3)OC(=O)c3cc(N(C)C)ccc32)cc1           NO

* * *

procedure_details: qHTS Assay for Identification of Small Molecule Agonists for Hypoxia Response Element Signaling Pathway (AID 914); note: % of control where 0% means no effect
condition_summary: ME-180 (cervical carcinoma) HRE-bla reporter, beta-lactamase ratio, CoCl2, 17 h; hits give high values
Results filed as inconclusive are left out.
Examples of compounds with documented activation follow.
endpoint: activation (%)

> print(dat)
                                    compound  unit.info  measured
 1  CCOc1ccc(/C(O)=C2/C(=O)C(=O)N(CCN(C)C)C2c2ccccc2)cc1Cl (stereo unspecified)          %      2.13
 2  CC1(C)Cc2c(C#N)c(NCC3CCCO3)nc(-c3ccco3)c2CO1 (stereo unspecified)          %      25.9
 3  CC1(C)CCN(Cc2ccccc2)C1CC#N (stereo unspecified)          %      7.94
 4  COc1nc(N(C)S(=O)(=O)c2ccc(C)cc2)nc(C)c1Cl          %     -6.79
 5  CCC1(C)Cc2c(sc3c2c(=O)n(C)c2nnc(SCc4ccc5c(c4)OCO5)n32)CO1 (stereo unspecified)          %     -18.9
 6          C[N+](C)(C)CCN(Cc1cccs1)c1ccccn1          %      3.56
 7  CC(=O)O[C@]12CC[N@+]3(C)CCCC[C@@H]3[C-]1Nc1ccccc12          %      4.44
 8  CCOC(=O)C(c1ccccc1)N1CCN(c2ccc(OC)cc2)CC1 (stereo unspecified)          %     -13.4
 9        CCOc1ccc(Cn2c(O)cc(=O)[nH]c2=O)cc1          %      5.51
10  CC(=O)N1CCN(c2nc(CC(C)C)c3c(c2C#N)CCC3)CC1          %      24.5
11            CN(Cc1ccccc1)Cc1c[nH]c2ccccc12          %     -19.8
